- Measurement protocol: in vivo
- Details: male, Balb c nu/nu, mouse, iv, 200 pmol, total radioactivity, pancreatic uptake
Parameter: tissue uptake at 1 h

1) CCNC(=O)[C@H](CC(C)C)NC(=O)[C@H](Cc1c[nH]cn1)NC(=O)CNC(=O)[C@@H](NC(=O)[C@H](C)NC(=O)[C@H](Cc1c[nH]c2ccccc12)NC(=O)[C@H](CCC(N)=O)NC(=O)[C@@H](Cc1ccccc1)NC(=O)COCC(=O)Nc1ccc(CNC(=O)CN2CCN(CC(=O)O)CCN(CC(=O)O)CCN(CC(=O)O)CC2)cc1)C(C)C [[^111In]SB3, metal not drawn]	4.1 %ID/g

* * *

- Measurement protocol: in vivo
- Details: male, Balb c nu/nu, mouse, iv, total radioactivity, tumor uptake
Parameter: tissue uptake at 1 h (%ID/g)

1. CCNC(=O)[C@H](CC(C)C)NC(=O)[C@H](Cc1c[nH]cn1)NC(=O)CNC(=O)[C@@H](NC(=O)[C@H](C)NC(=O)[C@H](Cc1c[nH]c2ccccc12)NC(=O)[C@H](CCC(N)=O)NC(=O)[C@@H](Cc1ccccc1)NC(=O)COCC(=O)Nc1ccc(CNC(=O)CN2CCN(CC(=O)O)CCN(CC(=O)O)CCN(CC(=O)O)CC2)cc1)C(C)C [[^111In]SB3, metal not drawn]	19.7

* * *

- Measurement protocol: in vivo
- Details: male, Balb c nu/nu, mouse, iv, 200 pmol, total radioactivity, renal uptake
Parameter: tissue uptake at 1 h (%ID/g)

1. CCNC(=O)[C@H](CC(C)C)NC(=O)[C@H](Cc1c[nH]cn1)NC(=O)CNC(=O)[C@@H](NC(=O)[C@H](C)NC(=O)[C@H](Cc1c[nH]c2ccccc12)NC(=O)[C@H](CCC(N)=O)NC(=O)[C@@H](Cc1ccccc1)NC(=O)COCC(=O)Nc1ccc(CNC(=O)CN2CCN(CC(=O)O)CCN(CC(=O)O)CCN(CC(=O)O)CC2)cc1)C(C)C [[^111In]SB3, metal not drawn]	3.9

* * *

- Measurement protocol: in vivo
- Details: male, Balb c nu/nu, mouse, iv, total radioactivity, tumor uptake
Parameter: tissue uptake at 4 h (%ID/g)

1. CCNC(=O)[C@H](CC(C)C)NC(=O)[C@H](Cc1c[nH]cn1)NC(=O)CNC(=O)[C@@H](NC(=O)[C@H](C)NC(=O)[C@H](Cc1c[nH]c2ccccc12)NC(=O)[C@H](CCC(N)=O)NC(=O)[C@@H](Cc1ccccc1)NC(=O)COCC(=O)Nc1ccc(CNC(=O)CN2CCN(CC(=O)O)CCN(CC(=O)O)CCN(CC(=O)O)CC2)cc1)C(C)C [[^111In]SB3, metal not drawn]	17.6

* * *

- Measurement protocol: in vivo
- Details: male, Balb c nu/nu, mouse, iv, total radioactivity, pancreatic uptake
Parameter: tissue uptake at 1 h

1. CCNC(=O)[C@H](CC(C)C)NC(=O)[C@H](Cc1c[nH]cn1)NC(=O)CNC(=O)[C@@H](NC(=O)[C@H](C)NC(=O)[C@H](Cc1c[nH]c2ccccc12)NC(=O)[C@H](CCC(N)=O)NC(=O)[C@@H](Cc1ccccc1)NC(=O)COCC(=O)Nc1ccc(CNC(=O)CN2CCN(CC(=O)O)CCN(CC(=O)O)CCN(CC(=O)O)CC2)cc1)C(C)C [[^111In]SB3, metal not drawn]	10.1 %ID/g

* * *

- Measurement protocol: in vivo
- Details: male, Balb c nu/nu, mouse, iv, 200 pmol, total radioactivity, tumor uptake
Parameter: tissue uptake at 4 h (%ID/g)

1. CCNC(=O)[C@H](CC(C)C)NC(=O)[C@H](Cc1c[nH]cn1)NC(=O)CNC(=O)[C@@H](NC(=O)[C@H](C)NC(=O)[C@H](Cc1c[nH]c2ccccc12)NC(=O)[C@H](CCC(N)=O)NC(=O)[C@@H](Cc1ccccc1)NC(=O)COCC(=O)Nc1ccc(CNC(=O)CN2CCN(CC(=O)O)CCN(CC(=O)O)CCN(CC(=O)O)CC2)cc1)C(C)C [[^111In]SB3, metal not drawn]	8.3

* * *

- Measurement protocol: in vivo
- Details: male, Balb c nu/nu, mouse, iv, total radioactivity, tumor to pancreas radioactivity ratio
- Protocol: Healthy or xenografted Balb c nu/nu male mice (Janvier) were used in this study. […] Tumor-bearing mice received an intravenous injection of 200 pmol/2.5 MBq [^111In]SB3, co-injected with either 300 μg/100 μl PA in 0.5 % ethanol or 100 μl saline solution (n = 4 animals per group for each time point). […] (1, 4, and 24 h), animals were euthanized and blood, organs, and tumors were collected, weighed, and measured in a γ-counter (1480 WIZARD automatic γ-counter, PerkinElmer). […]
Parameter: tissue to tissue ratio at 1 h

1. CCNC(=O)[C@H](CC(C)C)NC(=O)[C@H](Cc1c[nH]cn1)NC(=O)CNC(=O)[C@@H](NC(=O)[C@H](C)NC(=O)[C@H](Cc1c[nH]c2ccccc12)NC(=O)[C@H](CCC(N)=O)NC(=O)[C@@H](Cc1ccccc1)NC(=O)COCC(=O)Nc1ccc(CNC(=O)CN2CCN(CC(=O)O)CCN(CC(=O)O)CCN(CC(=O)O)CC2)cc1)C(C)C [[^111In]SB3, metal not drawn]	2.2

* * *

- Measurement protocol: in vivo
- Details: male, Balb c nu/nu, mouse, iv, 200 pmol, total radioactivity, tumor to pancreas radioactivity ratio
Parameter: tissue to tissue ratio at 1 h

1) CCNC(=O)[C@H](CC(C)C)NC(=O)[C@H](Cc1c[nH]cn1)NC(=O)CNC(=O)[C@@H](NC(=O)[C@H](C)NC(=O)[C@H](Cc1c[nH]c2ccccc12)NC(=O)[C@H](CCC(N)=O)NC(=O)[C@@H](Cc1ccccc1)NC(=O)COCC(=O)Nc1ccc(CNC(=O)CN2CCN(CC(=O)O)CCN(CC(=O)O)CCN(CC(=O)O)CC2)cc1)C(C)C [[^111In]SB3, metal not drawn]	3.4

* * *

- Measurement protocol: in vivo
- Details: male, Balb c nu/nu, mouse, iv, 200 pmol, total radioactivity, tumor to kidney ratio
Parameter: tissue to tissue ratio at 1 h

1. CCNC(=O)[C@H](CC(C)C)NC(=O)[C@H](Cc1c[nH]cn1)NC(=O)CNC(=O)[C@@H](NC(=O)[C@H](C)NC(=O)[C@H](Cc1c[nH]c2ccccc12)NC(=O)[C@H](CCC(N)=O)NC(=O)[C@@H](Cc1ccccc1)NC(=O)COCC(=O)Nc1ccc(CNC(=O)CN2CCN(CC(=O)O)CCN(CC(=O)O)CCN(CC(=O)O)CC2)cc1)C(C)C [[^111In]SB3, metal not drawn]	2.8

Where these numbers come from: paper PMC6244536
